Provenance of the data: patent EP3909578A1

Test system: Zika virus passaged during nine consecutive transfers (p9)
assay comment: Virucidal activity on Zika virus populations after nine passages with or without 5 µM eeyarestatin I (resistance selection)
protocol conditions: EEY-adapted Zika virus p9 (nine passages in 5 µM eeyarestatin I), 37°C for 4 hours
readout kind: IC50 (nM)
A number alone suffices; assume nM.

Request: Would you mind telling me what IC50 value was observed for CC1(C)C(N(O)C(=O)Nc2ccc(Cl)cc2)N(c2ccc(Cl)cc2)C(=O)N1CC(=O)N/N=C/C=C/c1ccc([N+](=O)[O-])o1 (stereo not shown) ?
Result: 130

* * *

Tested on: Vero cells
assay comment: Cell viability of Vero cells after exposure to VCP/p97 inhibitors (CellTiter-Blue Cell Viability Assay)
Type: cell-based, African green monkey
protocol conditions: time = 24 hours, read-out: 50% toxicity for Vero cells (CC50)
readout kind: CC50 (µM)
Write down the numeric answer in µM and omit the unit.

Request: // returns reported CC50 for input CC1(C)C(N(O)C(=O)Nc2ccc(Cl)cc2)N(c2ccc(Cl)cc2)C(=O)N1CC(=O)N/N=C/C=C/c1ccc([N+](=O)[O-])o1 (stereo not shown)
Result: 24
